test: In vivo pharmacokinetics in mouse; details: female, BALB/c, whole blood, po, orally, 10 mg/kg, read-out: Mouse PK orally Cmax
Measurement Name: Cmax (ng/mL)

>  <Molecule>
O=C(NCC1(O)CCC(F)(F)CC1)c1cc(=O)c2cc(F)ccc2o1 [Compound 5]

>  <Measurement Name>
Cmax

>  <Unit Of Measure>
ng/mL

>  <Quantitative Readout>
5400

$$$$

----------
test system: Plasmodium falciparum 3D7; test: P. falciparum 3D7 growth inhibition (SYBR green I); assay type: cell-based; details: Plasmodium falciparum; P. falciparum 3D7 bloodstream; read-out: Pf(3D7) EC50
pEC50: −log10 of the molar value.
Measurement Name: pEC50

>  <Molecule>
C[C@H]1CCC[C@H](C[C@H]2Cc3cc(O)cc(O)c3C(=O)O2)O1 [Compound 1, cladosporin, reference compound]

>  <Measurement Name>
pEC50

>  <Quantitative Readout>
7.14

$$$$
>  <Molecule>
O=C(NCC1CCCCC1)c1cc(=O)c2cc(F)ccc2o1

>  <Measurement Name>
pEC50

>  <Quantitative Readout>
6.54

$$$$
>  <Molecule>
O=C(NCC1(O)CCCCC1)c1cc(=O)c2cc(F)ccc2o1

>  <Measurement Name>
pEC50

>  <Quantitative Readout>
6.74

$$$$
>  <Molecule>
O=C(NCC1CCCCC1)c1cc(=O)c2ccccc2o1

>  <Measurement Name>
pEC50

>  <Quantitative Readout>
6.72

$$$$
>  <Molecule>
O=C(NCC1(O)CCC(F)(F)CC1)c1cc(=O)c2cc(F)ccc2o1

>  <Measurement Name>
pEC50

>  <Quantitative Readout>
6.57

$$$$

Measured values drawn from paper PMC6452685 for this set.
